target: Human CARM1 (PRMT4) (Homo sapiens, UniProt Q86X55); construct: Flag-CARM1-His was eluted with 200 ug/ml FLAG peptide in buffer A; assay: CARM1 enzyme assay on peptide substrates (3H-SAM Flashplate); conditions: Biochemical assay; CARM1 0.25 nM, 3H-SAM 30 nM, peptide 250 nM; read-out: Biochem IC50
Sequence (Q86X55 1-585 isoform Q86X55-1): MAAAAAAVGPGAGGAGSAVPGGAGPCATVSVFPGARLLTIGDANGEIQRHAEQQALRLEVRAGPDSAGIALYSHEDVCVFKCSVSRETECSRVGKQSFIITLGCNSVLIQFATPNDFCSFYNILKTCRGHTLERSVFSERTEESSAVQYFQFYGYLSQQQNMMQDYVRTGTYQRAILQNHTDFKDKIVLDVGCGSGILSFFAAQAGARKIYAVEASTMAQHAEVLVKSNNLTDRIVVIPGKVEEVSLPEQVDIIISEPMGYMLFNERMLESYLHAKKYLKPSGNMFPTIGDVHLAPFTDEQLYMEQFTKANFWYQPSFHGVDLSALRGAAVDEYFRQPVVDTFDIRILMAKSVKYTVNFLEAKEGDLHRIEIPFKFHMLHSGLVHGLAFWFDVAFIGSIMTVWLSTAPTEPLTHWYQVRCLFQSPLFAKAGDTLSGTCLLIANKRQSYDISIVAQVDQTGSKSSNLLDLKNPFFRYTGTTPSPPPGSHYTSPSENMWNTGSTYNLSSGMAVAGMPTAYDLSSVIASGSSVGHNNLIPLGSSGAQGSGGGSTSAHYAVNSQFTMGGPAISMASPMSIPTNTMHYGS
MEASURE: pIC50
Scale for pIC50: -log10 of concentration given in mol/L; no unit attached.

Completed entries (count: 2):
> print(dat)
                                   compound  measure  endpoint.value
1  CNC[C@@H](O)COc1ccc(Cl)c(-c2nc(-c3c(C)noc3C)c(C)c(N3C[C@]4(C)CN(CC(F)F)C[C@]4(C)C3)n2)c1 [Example 71]    pIC50            8.25
2  CCc1cc2c(c(C)n1)CN(c1nc(-c3cc(OC[C@H](O)CNC)ccc3Cl)nc(-c3c(C)noc3C)c1C)C2 [Example 101]    pIC50            8.36

**Query** I am curious: what pIC50 value has been reported for CNC[C@@H](O)COc1ccc(Cl)c(-c2nc(-c3c(C)noc3C)c(C)c(N3CC4(CN(CC(F)(F)F)C4)C3)n2)c1 [Example 99] ?
**Result** 7.96

**Query** What do you get for CNC[C@@H](O)COc1ccc(Cl)c(-c2nc(-c3c(C)noc3C)c(C)c(N3CC4(CC(N5CC(F)(F)C5)C4)C3)n2)c1 [Example 279] ?
**Result** 8.24

**Query** What do you get for CCN(C)c1ncc2c(n1)CN(c1nc(-c3cc(OC[C@H](O)CNC)ccc3Cl)nc(-c3c(C)c(Cl)nn3C)c1C)C2 [Example 159] ?
**Result** 8.70

**Query** What do you get for CNC[C@@H](O)COc1ccc(Cl)c(-c2nc(-c3c(C)noc3C)c(C)c(N3CC4(CC=C(F)CC4)C3)n2)c1 [Example 68] ?
**Result** 8.41

Where do these numbers come from? They come from patent US20170305922A1.
